# Target of assay: human KHK-C (Homo sapiens (Human))
# Sequence (P50053 whole entry): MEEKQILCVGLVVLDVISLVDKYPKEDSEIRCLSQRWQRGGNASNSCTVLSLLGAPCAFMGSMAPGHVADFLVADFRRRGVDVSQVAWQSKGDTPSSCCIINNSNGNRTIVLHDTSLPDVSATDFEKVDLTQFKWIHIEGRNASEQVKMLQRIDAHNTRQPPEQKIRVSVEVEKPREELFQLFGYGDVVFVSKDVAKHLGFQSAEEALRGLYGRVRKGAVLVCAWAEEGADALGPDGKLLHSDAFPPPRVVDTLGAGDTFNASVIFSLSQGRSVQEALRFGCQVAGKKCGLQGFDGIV
# Test name: KHK Biochemical Assay (IC50), ADP-Glo, KHK-C
# Particulars: ADP-Glo; average of at least two separate assays
Assign pIC50 to each entry below.
Give bare numbers, as −log10 of the molar value.

1. C[C@H]1[C@H](F)CN1c1nc(-c2ccc([C@]3(N)C[S@@](=N)(=O)C3)cc2)c2c(n1)C(F)(F)CC2: 9.70
2. C[C@H]1CCN1c1nc2c(c(-c3ccc(C#N)c(Cl)c3)n1)CCC2: 5.71
3. CCC1Oc2cc(-c3nc(N4CC[C@@H]4C)nc4c3CCC4)ccc2C1NS(C)(=O)=O (stereo partly shown): 7.34

# batch size: 5; output pIC50 per entry
1. C[C@H]1CCN1c1nc2c(c(-c3ccc(C4(N5CCOCC5)CC4)cc3)n1)CCC2
2. C[C@H]1CCN1c1nc2c(c(-c3ccc(C(O)C(F)(F)F)cc3)n1)CCC2 (stereo in doubt)
3. C[C@H]1CCN1c1nc2c(c(-c3cc4cc[nH]c(=O)c4s3)n1)CCC2
4. C[C@H]1[C@H](O)CN1c1nc(-c2ccc3c(c2)CCC3(C)NS(C)(=O)=O)c2c(n1)C(F)(F)CC2 (stereo partly shown)
5. C[C@H]1CCN1c1nc2c(c(-c3ccc4c(c3)CCCC4NS(C)(=O)=O)n1)CCC2 (stereo partly shown)

1: 6.10; 2: 5.79; 3: 8.82; 4: 7.46; 5: 7.22

====

# Target of assay: KHK-C expressed in NRK-52E cells (Homo sapiens (Human))
# Test name: KHK-C Cell-based Assay (EC50), NRK CTG, fructose-mediated ATP-depletion
pEC50: −log10 of the molar value.
Rule: y for pEC50 not less than 7, n for anything less.

See these solved cases before continuing.
1) C[C@@H](NS(C)(=O)=O)c1ccc(-c2nc(N3C[C@@H](O)[C@@H]3C)nc3c2CCC3(F)F)cc1: n
2) C[C@H]1[C@H](O)CN1c1nc2c(c(-c3ccc4c(c3)S(=O)(=O)CNC4=O)n1)CCC2: n
3) COc1c(Cl)cc(-c2nc(N3C[C@@H](O)[C@@H]3C)nc3c2CCC3(F)F)cc1S(C)(=N)=O (some centres unmarked): n
4) C[C@H]1CCN1c1nc2c(c(-c3ccccc3)n1)CCC2: n
5) C[C@H]1CCN1c1nc(-c2ccc([C@H](N)C(F)F)cc2)c2c(n1)C(F)(F)CC2: y

Then there is this molecule:
Would you say C[C@H]1CCN1c1nc2c(c(-c3cc4cc[nH]c(=O)c4s3)n1)CCC2 shows pEC50 at minimum 7?
y

====

# Target of assay: human KHK-C (Homo sapiens (Human))
# Test name: KHK Biochemical Assay (IC50), ADP-Glo, KHK-C
# Particulars: ADP-Glo; average of at least two separate assays
Readout: IC50 (nM)
Answers are plain numbers, in nM.

Field: example entries. Status: answers known.
1. CCc1cc(-c2nc(N3CC[C@@H]3C)nc3c2CCC3)ccc1C1(N)COC1: 6.3
2. C[C@H]1CCN1c1nc2c(c(-c3cccc(CNC(=O)CCO)c3)n1)CCC2: 70.3
3. C[C@H]1CCN1c1nc(-c2ccccc2)c2c(n1)C1CCC2C1 (some centres unmarked): 1480

Batch request: IC50 per item, same order as input.
1. C[C@H]1CCN1c1nc2c(c(-c3cn[nH]c3)n1)CCC2
2. C[C@H]1CCN1c1nc2c(c(-c3cnc(C(C)(C)O)s3)n1)CCC2
3. C[C@H]1CCN1c1nc2c(c(-c3cccc(C(=O)N4CC[C@H]4C(=O)O)c3)n1)CCC2
4. C[C@H]1CCN1c1nc2c(c(-c3ccc(-c4ccccc4)nc3)n1)CCC2
5. C[C@H]1[C@@H](O)CN1c1nc2c(c(-c3ccc(C(N)=O)cc3)n1)CCC2
6. C[C@@H]1CN(c2nc3c(c(-c4ccc(C(N)=O)cc4)n2)CCC3)[C@@H]1C

1: 33.2; 2: 33.3; 3: 315; 4: 801; 5: 4430; 6: 2540

Batch of 6 molecules: report IC50 for each.
1. C[C@H]1CCN1c1nc2c(c(-c3ccc(C(N)=O)cc3)n1)CC2
2. Cc1noc(C)c1S(=O)(=O)Nc1cccc(-c2nc(N3CC[C@@H]3C)nc3c2CCC3)c1
3. C[C@H]1[C@H](F)CN1c1nc2c(c(-c3ccc(C(N)=O)cc3)n1)CCC2
4. C[C@H]1CCN1c1nc2c(c(-c3ccc(C(O)C(F)F)cc3)n1)CCC2 (some centres unmarked)
5. N#CCC(N)c1ccc(-c2nc(N3CC[C@@H]3C(F)(F)F)nc3c2CCC3(F)F)cc1 (some centres unmarked)
6. C[C@H]1CCN1c1nc2c(c(-c3ccc4c(c3)C(=O)NS4(=O)=O)n1)CCC2

1. 328
2. 876
3. 10.9
4. 262
5. 0.5
6. 70.6

Lab note: measured IC50 of C[C@H]1CCN1c1nc2c(c(-c3cccc(CN4CCC4)c3)n1)CCC2 was 23.8
